target: human PKR1 receptors (Homo sapiens (Human), UniProt Q8TCW9); assay: PKR1 antagonist assay: block of PK1-mediated intracellular calcium release (FLIPR Tetra); details: RBL2H3 cells expressing human PKR1; stimulation with PK1 at EC80; calcium fluorescence
Sequence (Q8TCW9 whole entry): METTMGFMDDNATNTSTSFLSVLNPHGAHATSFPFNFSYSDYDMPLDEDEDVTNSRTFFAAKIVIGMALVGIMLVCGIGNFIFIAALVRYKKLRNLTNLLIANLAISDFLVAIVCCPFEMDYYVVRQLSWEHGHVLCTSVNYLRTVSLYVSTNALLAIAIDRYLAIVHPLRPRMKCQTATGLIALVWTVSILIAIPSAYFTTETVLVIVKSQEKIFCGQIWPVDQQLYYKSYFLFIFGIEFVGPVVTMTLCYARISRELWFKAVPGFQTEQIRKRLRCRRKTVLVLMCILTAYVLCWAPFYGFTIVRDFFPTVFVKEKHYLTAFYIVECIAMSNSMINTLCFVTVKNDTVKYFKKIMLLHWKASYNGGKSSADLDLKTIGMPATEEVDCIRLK
pIC50: −log10 of the molar value.
quantity: pIC50

compound	pIC50
CCCN(C)c1cc(C(=O)N2CCCC(c3ccc(C)cc3)C2)ccn1 (stereo not shown) [Example 39]	5.09
Cn1cc(C(=O)N2CCCC(c3ccc(Cl)cc3C(F)(F)F)C2)c(N)n1 (stereo not shown) [Example 100]	6.27
CNc1cc(C(=O)N2CCCC(c3ccc(Cl)cc3C)C2)cnn1 (stereo not shown) [Example 71]	7.15
CCn1cc(C(=O)N2CCCC(c3ccc(Cl)cc3C)C2)cn1 (stereo not shown) [Example 92]	6.96
COc1ccccc1C1CCCN(C(=O)c2ccnc(N(C)C)c2)C1 (stereo not shown) [Example 48]	6.39
O=C(c1ccnc(Cl)c1)N1CCCC(c2ccc(Cl)cc2)C1 (stereo not shown) [Example 29]	5.48
CN(C)c1cc(C(=O)N2CCCCC(c3ccc(Cl)cc3)C2)cnn1 (stereo not shown) [Example 115]	5.84
CNc1cc(C(=O)N2CCCC(c3ccc(OC)cc3C)C2)ccn1 (stereo not shown) [Example 63]	7.40
O=C(c1ccnc(N2CCC2)c1)N1CCCC(c2ccc(Cl)cc2)C1 (stereo not shown) [Example 22]	5.98
CCn1cc(C(=O)N2CCCC(c3ccc(Cl)cc3C(F)(F)F)C2)cn1 (stereo not shown) [Example 98]	6.77

(1) CNc1cc(C(=O)N2CCCC(c3ccc(Cl)cc3C(F)(F)F)C2)ccn1 (stereo not shown) [Example 57]
(2) CN(C)c1cc(C(=O)N2CCCC(c3ccc(Cl)cc3C(F)(F)F)C2)ccn1 (stereo not shown) [Example 7]
(3) CN(C)c1cc(C(=O)N2CCCC(c3ccc(F)cc3)C2)ccn1 (stereo not shown) [Example 19]
(4) CN(C)c1cc(C(=O)N2CCCC(c3ccc(F)cc3Cl)C2)ccn1 (stereo not shown) [Example 26]
(5) Cc1cc(Cl)ccc1C1CCCN(C(=O)c2cn(C)nc2C)C1 (stereo not shown) [Example 87]
Request: Reorder: pIC50, max to min. // respond by listing labels in the order requested
Response: 1, 2, 5, 4, 3

(P) Cc1cc(Cl)ccc1C1CCCN(C(=O)c2ccnc(N3CCC3)c2)C1 (stereo not shown) [Example 33]
(Q) Cc1cc(C(=O)N2CCCC(c3ccc(Cl)cc3C(F)(F)F)C2)ccn1 (stereo not shown) [Example 10]
Request: Returns: the argument ( P or Q ) having the larger pIC50. Record your answer as the label of the chosen record.
Response: P

Origin of values: patent US9790201B2
